Assay: Intrinsic clearance in rat liver microsomes
Type: ADME, Microsome
Conditions: read-out: CLH
readout-name: CLint scaled (mL/min/kg)

a. CC(C)Oc1cc(Oc2ccc(S(C)(=O)=O)cc2)cc(-c2cccc(=O)[nH]2)c1
b. Cc1cc(=O)[nH]c(-c2cc(Oc3ccc(S(C)(=O)=O)cc3)cc(OC(C)C)c2)n1
c. C[C@@H](CO)Oc1cc(Oc2cnc(C(=O)N(C)C)nc2)cc(-c2nccc(=O)[nH]2)c1
Qu. Give the order of the entries above, sorted from least to greatest CLint scaled. Thanks in advance for listing the labels in the requested order.
Ans. c, b, a
(c: 26 mL/min/kg, b: 96 mL/min/kg, a: 349 mL/min/kg)

---

Experiment: Volume of distribution at steady state in Wistar-Han rat at 1 mg/kg, iv
Format: ADME, organism-based
Parameters: dose 1 mg/kg, route intravenous
Conditions: in vivo, read-out: Vdss
readout-name: Vd (L/kg)

Illustrative cases are given below, each with its answer.
> print(dat)
                                     smiles  endpoint.result
1  Cc1cnc(-c2cc(Oc3ccc(S(C)(=O)=O)cc3)cc(OC(C)C)c2)[nH]c1=O            0.746
2  CC(C)Oc1cc(Oc2ccc(S(C)(=O)=O)cc2)cc(-c2nccc(=O)[nH]2)c1             6.41

1. CCS(=O)(=O)c1ccc(Oc2cc(O[C@@H](C)CO)cc(-c3nccc(=O)[nH]3)c2)cc1
2. CCC(CC)Oc1cc(Oc2cnc(C(=O)N(C)C)nc2)cc(-c2nccc(=O)[nH]2)c1
Qu. Given the two records 1 and 2 , choose the one whose Vd value is lower. Record your answer as the label of the chosen record.
Ans. 1

---

Test: Cmax in Wistar-Han rat at 5 mg/kg, po
Type: ADME, organism-based
Set-up: dose 5 mg/kg, route oral
Settings: in vivo
readout-name: Cmax (ng/mL)

1. CCS(=O)(=O)c1ccc(Oc2cc(O[C@@H](C)CO)cc(-c3nccc(=O)[nH]3)c2)cc1
2. CCC(CC)Oc1cc(Oc2cnc(C(=O)N(C)C)nc2)cc(-c2nccc(=O)[nH]2)c1
3. Cc1cnc(-c2cc(Oc3ccc(S(C)(=O)=O)cc3)cc(OC(C)C)c2)[nH]c1=O
4. CC(C)Oc1cc(Oc2ccc(S(C)(=O)=O)cc2)cc(-c2nccc(=O)[nH]2)c1
Qu. Order each entry by recorded Cmax, climbing from the minimum. Give me the labels in the order the question wants.
Ans. 3, 1, 4, 2
(3: 31 ng/mL, 1: 74 ng/mL, 4: 150 ng/mL, 2: 412 ng/mL)

---

Assay: Intrinsic clearance in rat liver microsomes
Assay type: ADME, Microsome
Settings: read-out: CLH
readout-name: CLint scaled (mL/min/kg)

I. CC(C)Oc1cc(Oc2ccc(S(C)(=O)=O)cc2)cc(-c2nccc(=O)[nH]2)c1
II. CC(C)Oc1cc(Oc2ccc(S(C)(=O)=O)cc2)cc(-c2cncc(=O)[nH]2)c1
III. CCc1cnc(-c2cc(Oc3ccc(S(C)(=O)=O)cc3)cc(OC(C)C)c2)[nH]c1=O
Qu. From the items above, give an ordering by CLint scaled that starts at the lowest reported number. Give the order by naming the labels one after another as requested.
Ans. II, I, III
(II: 61 mL/min/kg, I: 105 mL/min/kg, III: 171 mL/min/kg)

A. CC(C)Oc1cc(Oc2cnc(C(=O)N(C)C)cn2)cc(-c2nccc(=O)[nH]2)c1
B. CN(C)C(=O)c1ncc(Oc2cc(OC3CCCC3)cc(-c3nccc(=O)[nH]3)c2)cn1
Qu. Problem: Given the entries A and B , determine which has the lower reported CLint scaled. Respond with the label that goes with your answer.
Ans. A
(A: 47 mL/min/kg, B: 106 mL/min/kg)
